tested on: Ipomoea hederacea (IPOHE); test: Post-emergence efficacy, glasshouse, evaluated after 13 days; type: in vivo; conditions: Ipomoea hederacea, 312 h; post-emergence application, 500 g/Ha, evaluated after 13 days; read-out: Control of weed species IPOHE (100=total damage to plant; 0=no damage to plant)
valueKind: pest or weed control at 500 g/ha

CCCNC(=O)c1cc[n+](CCC(=O)O)nc1; 40%
CC(=O)NNC(=O)c1cc[n+](CCC(=O)O)nc1; 30%
O=C(O)CC[n+]1ccc(C(=O)NCCc2nccs2)cn1; 40%
CCSCCNC(=O)c1cc[n+](CCC(=O)O)nc1; 10%
CS(=O)(=O)CCNC(=O)c1cc[n+](CCC(=O)O)nc1; 80%
CCNC(=O)c1cc[n+](CC(C)C(=O)O)nc1 (stereo not shown); 70%
O=C(O)CC[n+]1ccc(C(=O)NC2C[S+]([O-])C2)cn1 (stereo not shown); 100%
C#CCNC(=O)c1cc[n+](CCS(=O)(=O)[O-])nc1; 80%
COCCNC(=O)c1cc[n+](CCNS(=O)(=O)[O-])nc1; 40%
CCCNC(=O)c1cc[n+](CCS(=O)(=O)[O-])nc1; 60%
CCNC(=O)c1cc[n+](CC(=O)OC)nc1; 20%
O=C(O)CC[n+]1ccc(C(=O)NCc2ccc(C(F)(F)F)cc2)cn1; 20%
CNC(=O)c1cc[n+](CCS(=O)(=O)[O-])nc1; 60%

* * *

test system: Digitaria sanguinalis (DIGSA); assay: Post-emergence efficacy, glasshouse, evaluated after 13 days; assay type: in vivo; details: Digitaria sanguinalis, 312 h; post-emergence application, 500 g/Ha, evaluated after 13 days; read-out: Control of weed species DIGSA (100=total damage to plant; 0=no damage to plant)
valueKind: pest or weed control at 500 g/ha

CN(C)C(=O)c1cc[n+](CCC(=O)O)nc1 [Compound A10]; 90%
O=C(O)CC[n+]1ccc(C(=O)NCC(F)(F)C(F)(F)F)cn1 [Compound A97]; 90%
O=C(O)CC[n+]1ccc(C(=O)NC2CCCC2)cn1 [Compound A58]; 90%

* * *

test system: Ipomoea hederacea (IPOHE); experiment: Post-emergence efficacy, glasshouse, evaluated after 13 days; type: in vivo; settings: Ipomoea hederacea, 312 h; post-emergence application, 500 g/Ha, evaluated after 13 days; read-out: Control of weed species IPOHE (100=total damage to plant; 0=no damage to plant)
Below is a list of entries, each paired with its recorded pest or weed control at 500 g/ha value.
valueKind: pest or weed control at 500 g/ha (%)

CN(C(=O)c1cc[n+](CCS(=O)(=O)O)nc1)c1ccccc1; 30
CC(C)(C)NC(=O)c1cc[n+](CCC(=O)O)nc1; 30
CC(CC(=O)O)[n+]1ccc(C(=O)NC2(C#N)CC2)cn1 (stereo not drawn); 30
C#CC(C)(C)NC(=O)c1cc[n+](CCC(=O)O)nc1; 10
Cn1nccc1NC(=O)c1cc[n+](CCC(=O)O)nc1; 10
O=C(O)CC[n+]1ccc(C(=O)NCCO)cn1; 100
CC(C)CNC(=O)c1cc[n+](CCC(=O)O)nc1; 50
CC(O)CCNC(=O)c1cc[n+](CCC(=O)O)nc1 (stereo not drawn); 30
O=C(O)CC[n+]1ccc(C(=O)NC2CCCC2)cn1; 30
O=C(O)CC[n+]1ccc(C(=O)Nc2ccc(F)cc2F)cn1; 30
CN(CC#N)C(=O)c1cc[n+](CCC(=O)O)nc1; 20
CCNC(=O)c1cc[n+](CCP(=O)(O)O)nc1; 50
COC(=O)CC[n+]1ccc(C(=O)Nc2nccs2)cn1; 10
O=C(c1cc[n+](CCS(=O)(=O)[O-])nc1)N1CCOCC1; 60
O=C(O)CC[n+]1ccc(C(=O)NC2CSC2)cn1; 40
O=C(O)CC[n+]1ccc(C(=O)N2CCOCC2)cn1; 50
CCS(=O)(=O)CCNC(=O)c1cc[n+](CCC(=O)O)nc1; 40
CCCCNC(=O)c1cc[n+](CCC(=O)O)nc1; 30
CCC1(NC(=O)c2cc[n+](CCC(=O)O)nc2)CC1; 20
CCNC(=O)c1cc[n+](CCNS(=O)(=O)[O-])nc1; 90
N#Cc1ccc(CNC(=O)c2cc[n+](CCC(=O)O)nc2)cc1; 40
CC(C#N)NC(=O)c1cc[n+](CCC(=O)O)nc1 (stereo not drawn); 30
C=CCNC(=O)c1cc[n+](CCC(=O)O)nc1; 70
COC(=O)CC[n+]1ccc(C(=O)N(C)C)cn1; 20

* * *

Attribute: pest or weed control at 500 g/ha
tested on: Ipomoea hederacea (IPOHE); assay: Post-emergence efficacy, glasshouse, evaluated after 13 days; format: in vivo; conditions: Ipomoea hederacea, 312 h; post-emergence application, 500 g/Ha, evaluated after 13 days; read-out: Control of weed species IPOHE (100=total damage to plant; 0=no damage to plant)
Structures can show the parent of a compound that is named as a salt.
valueKind: pest or weed control at 500 g/ha (%)

O=C(O)CC[n+]1ccc(C(=O)Nc2nccs2)cn1 [Compound A102]; 20
O=C(O)CC[n+]1ccc(C(=O)NCc2ccccn2)cn1 [Compound A115]; 20
O=C(NCc1ccccc1)c1cc[n+](CCS(=O)(=O)[O-])nc1 [Compound A20]; 50
CNC(=O)c1cc[n+](CCCS(=O)(=O)[O-])nc1 [Compound A11]; 30
CN(C(=O)c1cc[n+](CCC(=O)O)nc1)c1ccccc1 [Compound A38, trifluoroacetate]; 40
O=C(O)CC[n+]1ccc(C(=O)Nc2ccccc2)cn1 [Compound A33]; 30
CC1(NC(=O)c2cc[n+](CCC(=O)O)nc2)CC1 [Compound A92]; 50

* * *

tested on: Setaria faberi (SETFA); assay: Post-emergence efficacy, glasshouse, evaluated after 13 days; assay type: in vivo; conditions: Setaria faberi, 312 h; post-emergence application, 500 g/Ha, evaluated after 13 days; read-out: Control of weed species SETFA (100=total damage to plant; 0=no damage to plant)
Field 'label' (enum: TRUE / FALSE). Set to TRUE when pest or weed control at 500 g/ha is strictly under 60%; else FALSE.

CCSCCNC(=O)c1cc[n+](CCC(=O)O)nc1; FALSE
O=C(O)CC[n+]1ccc(C(=O)Nc2ccon2)cn1; FALSE
C#CCNC(=O)c1cc[n+](CCC(=O)O)nc1; FALSE
CN(C)C(=O)c1cc[n+](CCCS(=O)(=O)O)nc1; TRUE
CCCCNC(=O)c1cc[n+](CCC(=O)O)nc1; FALSE
CC(C)(CO)NC(=O)c1cc[n+](CCC(=O)O)nc1; FALSE
CN(C)C(=O)c1cn[n+](CCS(=O)(=O)O)cc1-c1ccccc1; TRUE
CCNC(=O)c1cc[n+](CC(C)(C)C(=O)O)nc1; FALSE
O=C(NC1CC1)c1cc[n+](CCS(=O)(=O)[O-])nc1; FALSE
O=C(c1cc[n+](CCS(=O)(=O)[O-])nc1)N1CCOCC1; FALSE
CCNC(=O)c1cc[n+](C(C)CC(=O)O)nc1 (stereo not drawn); TRUE
CC1(NC(=O)c2cc[n+](CCNS(=O)(=O)[O-])nc2)CC1; FALSE
CN1CCN(C(=O)c2cc[n+](CCC(=O)O)nc2)CC1; FALSE
O=C(O)CC[n+]1ccc(C(=O)Nc2cnccn2)cn1; FALSE
CC(C)N(C(=O)c1cc[n+](CCC(=O)O)nc1)C(C)C; TRUE
O=C(O)CC[n+]1ccc(C(=O)Nc2nccs2)cn1; TRUE
CC(C)(C)NC(=O)c1cc[n+](CCS(=O)(=O)O)nc1; FALSE
CS(=O)(=O)CCNC(=O)c1cc[n+](CCNS(=O)(=O)[O-])nc1; TRUE
CCNC(=O)c1cc[n+](CCCC(=O)O)nc1; FALSE
CNC(=O)c1cn[n+](CCC(=O)O)cc1C; FALSE
CC(C)N(C(=O)c1cc[n+](CCS(=O)(=O)O)nc1)C(C)C; TRUE
CC(O)CCNC(=O)c1cc[n+](CCC(=O)O)nc1 (stereo not drawn); FALSE
CC(C)NC(=O)c1cc[n+](CCS(=O)(=O)O)nc1; TRUE
O=C(O)CC[n+]1ccc(C(=O)NC2CS(=O)(=O)C2)cn1; FALSE

* * *

tested on: Echinochloa crus-galli (ECHCG); assay: Post-emergence efficacy, glasshouse, evaluated after 13 days; type: in vivo; conditions: Echinochloa crus-galli, 312 h; post-emergence application, 500 g/Ha, evaluated after 13 days; read-out: Control of weed species ECHCG (100=total damage to plant; 0=no damage to plant)
valueKind: pest or weed control at 500 g/ha (%)

CNC(=O)c1cn[n+](CCS(=O)(=O)[O-])cc1-c1ccccc1; 40
CN(CCS(C)(=O)=O)C(=O)c1cc[n+](CCC(=O)O)nc1; 60
C=CCNC(=O)c1cc[n+](CCC(=O)O)nc1; 80
CC1(C)CC(NC(=O)c2cc[n+](CCC(=O)O)nc2)=NO1; 30
O=C(O)CC[n+]1ccc(C(=O)Nc2ccon2)cn1; 50
CCNC(=O)c1cc[n+](CC(C)C(=O)O)nc1 (stereo not shown); 60
Cn1cnc(CNC(=O)c2cc[n+](CCC(=O)O)nc2)n1; 90
CC(C)(C)NC(=O)c1cc[n+](CCC(=O)O)nc1; 90
O=C(O)CC[n+]1ccc(C(=O)NC2CCCC2)cn1; 70
CNC(=O)c1cn[n+](CCC(=O)O)cc1C; 70
COCCNC(=O)c1cc[n+](CCCOS(=O)(=O)[O-])nc1; 30
O=C(c1cc[n+](CCS(=O)(=O)[O-])nc1)N1CCCCC1; 40
CC1(C)CC(CCNC(=O)c2cc[n+](CCC(=O)O)nc2)=NO1 [Compound A148, 2,2,2-trifluoroacetate]; 30
O=C(NC1CC1)c1cc[n+](CCCOS(=O)(=O)[O-])nc1; 60
CC(CC(=O)O)[n+]1ccc(C(=O)NC2(C#N)CC2)cn1 (stereo not shown); 80
CC(C)CNC(=O)c1cc[n+](CCC(=O)O)nc1; 60
Cn1ncnc1CCNC(=O)c1cc[n+](CCC(=O)O)nc1; 60
O=C(O)CC[n+]1ccc(C(=O)NC2CS(=O)(=O)C2)cn1; 100
O=C(O)CC[n+]1ccc(C(=O)NC2CC2(F)F)cn1 (stereo not shown); 80
CC(CS(C)(=O)=O)NC(=O)c1cc[n+](CCC(=O)O)nc1 (stereo not shown); 90
CC[S+]([O-])CCNC(=O)c1cc[n+](CCC(=O)O)nc1 (stereo not shown); 60
CCCNC(=O)c1cc[n+](CCC(=O)O)nc1; 80
O=C(O)CC[n+]1ccc(C(=O)NCc2ccc(F)cc2)cn1; 50
CC1(C)CC1NC(=O)c1cc[n+](CCC(=O)O)nc1 (stereo not shown); 100
CN(CC#N)C(=O)c1cc[n+](CCC(=O)O)nc1; 60
CCNC(=O)c1cc[n+](CCOS(=O)(=O)[O-])nc1; 90
O=C(O)CC[n+]1ccc(C(=O)N2CCCC2)cn1; 90
O=C(O)CC[n+]1ccc(C(=O)NC2CC2)cn1; 70
CC(C)NC(=O)c1cc[n+](CCS(=O)(=O)O)nc1; 60
CCNC(=O)c1cc[n+](CCNS(=O)(=O)[O-])nc1; 100
O=C(O)CC[n+]1ccc(C(=O)Nc2ccccc2)cn1; 60
